Values compiled from ChEMBL document CHEMBL5244275.

test: Oral bioavailability in mouse; type: ADME, organism-based; conditions: in vivo
# bioavailability per record follows
Just the number plus its unit, please.

Please review the following examples before continuing.
INSERT INTO measurements (compound, observed_property, result) VALUES
  ('CCC(=O)O[C@@H]([C@H]1C[C@@H](C)[C@H]2[C@H](O1)[C@H](O)[C@@]1(C)[C@@H]3CC[C@H]4C(C)(C)[C@@H](O[C@H]5CN(C6CN(C)C6)CCO5)CC[C@@]45C[C@@]35CC[C@]21C)C(C)(C)O', 'bioavailability', '45%'),
  ('C=C(C)CN1C[C@H](OC[C@@]23C[C@@H]4[C@H](C)CC[C@H]4[C@@]4(C=O)C[C@@H]2C=C(C(C)C)[C@@]34C(=O)O)O[C@H](C)[C@@H](OC)C1', 'bioavailability', '63%');

## Input What value of measured bioavailability is listed for C[C@H]1[C@@H](O)O[C@@H]2O[C@@]3(C)CC[C@H]4[C@H](C)CC[C@@H]1[C@@]24OO3 ?
## Output 1.4%

## Input What value of measured bioavailability is listed for CN1CCN(C2CCN(C(=O)CC3CCC4(CC3)OOC3(OO4)C4CC5CC(C4)CC3C5)CC2)CC1 (stereo unspecified) ?
## Output 42%

## Input What value of measured bioavailability is listed for FC1CCN(CCc2ccc(C3CCC4(CC3)OOC3(OO4)C4CC5CC(C4)CC3C5)cc2)CC1 (stereo unspecified) ?
## Output 82%

## Input What value of measured bioavailability is listed for C[C@@H]1CC[C@H]2[C@@H](C)[C@](O)(C(F)(F)F)O[C@@H]3O[C@@]4(C)CC[C@@H]1[C@]32OO4 ?
## Output 28%

====

test: Clearance in Chimpanzee at 0.5 mg/kg, iv bolus injection; assay type: ADME, organism-based, Pan troglodytes; conditions: in vivo
observed-property: clearance

INSERT INTO measurements (smiles_str, result) VALUES
  ('CC[C@H](C)C[C@H](C)CCCCCCCCC(=O)N[C@H]1C[C@@H](O)[C@@H](OCCN)NC(=O)[C@@H]2[C@@H](O)CCN2C(=O)[C@H]([C@H](O)CCN)NC(=O)[C@H]([C@H](O)[C@@H](O)c2ccc(O)cc2)NC(=O)[C@@H]2C[C@@H](O)CN2C(=O)[C@H]([C@@H](C)O)NC1=O', '0.58 mL/min/kg');

Now let's try a different one.
## Input What value of measured clearance is listed for CC[C@H](C)C[C@H](C)CCCCCCCCC(=O)N[C@H]1C[C@@H](O)[C@@H](NCCN)NC(=O)[C@@H]2[C@@H](O)CCN2C(=O)[C@H]([C@H](O)CCN)NC(=O)[C@H]([C@H](O)[C@@H](O)c2ccc(O)cc2)NC(=O)[C@@H]2C[C@@H](O)CN2C(=O)[C@H]([C@@H](C)O)NC1=O ?
## Output 0.26 mL/min/kg

====

test: Stability in monkey plasma assessed as drug degradation measured after 44 hrs; format: ADME, cell-free, Macaca mulatta; conditions: rhesus monkey, read-out: Drug degradation
Numbered stars: 1 amine (or outer) side, 2 acyl side, 3 side chain; on linkers, the order of the positions; unused ones are H or OH. Bridge positions count the residues as written; N and C are the ends. Square brackets hold non-standard residues; d marks the D form. Peptide text beside a SMILES is read from it. * marks the point of attachment. Orn(4R-OH,5R-OCH2CH2NMe3+) = C[N+](C)(C)CCO[C@@H](N[*:3])[C@H](O)C[C@H](N[*:1])C(=O)[*:2]; pTerphenylCO(4''-OnC5H11) = CCCCCOc1ccc(-c2ccc(-c3ccc(C(=O)*)cc3)cc2)cc1; hTyr(3S-OH,4S-OH) = N[C@H](C(=O)O)[C@H](O)[C@@H](O)c1ccc(O)cc1; Pro(3S-OH,4S-Me) = C[C@H]1CN[C@H](C(=O)O)[C@H]1O; Hyp = O=C(O)[C@@H]1C[C@@H](O)CN1
observed-property: metabolised at 44 h (%)
Express the result in % but write the number alone.

## Input What value of measured metabolised at 44 h is listed for CCCCCOc1ccc(-c2ccc(-c3ccc(C(=O)N[C@H]4C[C@@H](O)[C@@H](OCC[N+](C)(C)C)NC(=O)[C@@H]5[C@@H](O)[C@@H](C)CN5C(=O)[C@H]([C@@H](C)O)NC(=O)[C@H]([C@H](O)[C@@H](O)c5ccc(O)cc5)NC(=O)[C@@H]5C[C@@H](O)CN5C(=O)[C@H]([C@@H](C)O)NC4=O)cc3)cc2)cc1 [REZAFUNGIN] ({pTerphenylCO(4''-OnC5H11)}-[Orn(4R-OH,5R-OCH2CH2NMe3+)]T[Hyp][hTyr(3S-OH,4S-OH)]T[Pro(3S-OH,4S-Me)]; lactam 1-C) ?
## Output 6
